Test: In vitro combination Anthralin and IS 181 (MTT)
Type: cell-based, Human
Settings: human, HaCaT keratinocytes, IS 181 100 μg/ml alone, read-out: percent inhibition of cell viability/cytotoxicity
assay-endpoint: cytotoxicity at 72 h, 100 μg/ml

substance="H-WVQRVVEKFLK-OH [IS181]" value_observed=8.16%

====

Assay: Cell viability (MTT assay) in HaCaT
Format: cell-based, Human
Conditions: human, HaCaT keratinocytes; HaCaT, 1% FBS, 24 h, 500 μg/ml
assay-endpoint: cytotoxicity at 24 h, 500 μg/ml (%)

substance="H-WVQRVVEKFLK-OH [IS181]" assay_endpoint="cytotoxicity at 24 h, 500 μg/ml" value_observed=18.9

====

Assay: Cell viability (MTT assay) in HaCaT
Format: cell-based, Human
Conditions: human, HaCaT keratinocytes; HaCaT, 1% FBS, 72 h, 2000 μg/ml
assay-endpoint: cytotoxicity at 72 h, 2000 μg/ml (%)

substance="H-WVQRVVEKFLK-OH [IS181]" endpoint_unit=% value_observed=89.4

====

Experiment: Cell viability (MTT assay) in PBMCs
Format: cell-based, Human
Conditions: human, human PBMCs; PBMCs, 72 h, 2000 μg/ml
Procedure: Cell Lines/Cells: Human Keratinocytes (HaCaT); Human melanoma (SK-MEL-28); Human PBMCs. Test Item: IS181 Treatment regimen: Single addition—24 h, ^#Multiple additions (3)−72 h; Concentration range: 1 ng/ml-2 mg/ml (triplicate wells); Sera Condition: […] Method of estimation: MTT assay. […] Positive control: Triton-X-100, Doxorubicin Hydrochloride.
assay-endpoint: cytotoxicity at 72 h, 2000 μg/ml (%)

substance="H-WVQRVVEKFLK-OH [IS181]" assay_endpoint="cytotoxicity at 72 h, 2000 μg/ml" endpoint_unit=% value_observed=66.1

====

Assay: Cell viability (MTT assay) in SK-MEL-28
Type: cell-based, Human
Settings: human, SK-MEL-28 melanoma cells; SK-MEL-28, 24 h, 0.1 μg/ml
assay-endpoint: cytotoxicity at 24 h, 0.1 μg/ml (%)

substance="H-WVQRVVEKFLK-OH [IS181]" assay_endpoint="cytotoxicity at 24 h, 0.1 μg/ml" value_observed=-4.93

====

Assay: In vitro combination Anthralin and IS 181 (MTT)
Type: cell-based, Human
Conditions: human, HaCaT keratinocytes, Anthralin 1 μM alone, read-out: percent inhibition of cell viability/cytotoxicity
assay-endpoint: cytotoxicity at 72 h, 1 µM (%)

compound="O=C1c2c(O)cccc2Cc2cccc(O)c21 [Anthralin, reference compound]" endpoint_unit=% value_observed=78.9

====

Experiment: Cell viability (MTT assay) in HaCaT
Assay type: cell-based, Human
Conditions: human, HaCaT keratinocytes; HaCaT, 1% FBS, 72 h, 1000 μg/ml
assay-endpoint: cytotoxicity at 72 h, 1000 μg/ml (%)

substance="H-WVQRVVEKFLK-OH [IS181]" assay_endpoint="cytotoxicity at 72 h, 1000 μg/ml" value_observed=91

====

Assay: Cell viability (MTT assay) in HaCaT
Format: cell-based, Human
Conditions: human, HaCaT keratinocytes; HaCaT, 1% FBS, 24 h, 2000 μg/ml
Description: Cell Lines/Cells: Human Keratinocytes (HaCaT); Human melanoma (SK-MEL-28); Human PBMCs. Test Item: IS181 Treatment regimen: Single addition—24 h, ^#Multiple additions (3)−72 h; Concentration range: 1 ng/ml-2 mg/ml (triplicate wells); Sera Condition: […] Method of estimation: MTT assay. […] Positive control: Triton-X-100, Doxorubicin Hydrochloride.
assay-endpoint: cytotoxicity at 24 h, 2000 μg/ml (%)

substance="H-WVQRVVEKFLK-OH [IS181]" endpoint_unit=% value_observed=91.3

====

Assay: Cell viability of splenocytes (MTT)
Type: cell-based, mouse
Settings: mouse
Procedure: Cell lines: mouse splenocytes; test item: IS181; treatment regimen: single addition—24 hours; concentration range: 10 μg/ml-5000 μg/ml.A) Identification of non-cytotoxic concentrations: splenocytes were treated with IS181 for 24 hours. Effect on cell viability was assessed by MTT assay. […] Supernatants were collected and stored at −20° C. till analysed. Levels of IL-17 were analysed in supernatants by ELISA. Percent inhibition of IL-17 secretion was calculated with reference to ConA treated levels. […]
assay-endpoint: viability at 24 h, 1 µM (%)

compound="COc1cc(/C=C/C(=O)CC(=O)/C=C/c2ccc(O)c(OC)c2)ccc1O [Curcumin, reference compound]" value_observed=97.5

====

Assay: in vitro
Settings: human, HaCaT keratinocytes
assay-endpoint: cytotoxicity at 72 h, 50 μg/ml

substance="H-WVQRVVEKFLK-OH [IS181]" value_observed=17.8%

====

Test: in vitro
Settings: human, HaCaT keratinocytes
assay-endpoint: cytotoxicity at 72 h, 0.1 µM

molecule="CN(Cc1cnc2nc(N)nc(N)c2n1)c1ccc(C(=O)N[C@@H](CCC(=O)O)C(=O)O)cc1 [MTX, methotrexate]" assay_endpoint="cytotoxicity at 72 h, 0.1 µM" value_observed=1.9%

====

Experiment: Cell viability of splenocytes (MTT)
Format: cell-based, mouse
Conditions: mouse, mouse splenocytes; splenocytes, 24 h, 100 μg/ml
assay-endpoint: viability at 24 h, 100 μg/ml (%)

substance="H-WVQRVVEKFLK-OH [IS181]" assay_endpoint="viability at 24 h, 100 μg/ml" value_observed=110

====

Experiment: In vitro combination Anthralin and IS 181 (MTT)
Assay type: cell-based, Human
Details: human, HaCaT keratinocytes, IS 181 2000 μg/ml alone, read-out: percent inhibition of cell viability/cytotoxicity
assay-endpoint: cytotoxicity at 72 h, 2000 μg/ml (%)

substance="H-WVQRVVEKFLK-OH [IS181]" value_observed=81.4

====

Experiment: Cell viability of THP-1 (MTT)
Type: cell-based, Human
Conditions: human, THP-1 monocytic cells; THP-1, 24 h, 100 μg/ml; read-out: Cell viability (wrt Untreated)
assay-endpoint: viability at 24 h, 100 μg/ml

substance="H-WVQRVVEKFLK-OH [IS181]" value_observed=90.4%

====

Assay: Cell viability (MTT assay) in HaCaT
Format: cell-based, Human
Conditions: human, HaCaT keratinocytes; HaCaT, 1% FBS, 24 h, 0.1 μg/ml
assay-endpoint: cytotoxicity at 24 h, 0.1 μg/ml (%)

substance="H-WVQRVVEKFLK-OH [IS181]" value_observed=-1.4

====

Test: Cell viability of splenocytes (MTT)
Format: cell-based, mouse
Details: mouse, mouse splenocytes; splenocytes, 24 h, 1 mg/ml
assay-endpoint: viability at 24 h, 1 mg/ml (%)

substance="H-WVQRVVEKFLK-OH [IS181]" value_observed=79.4

====

Assay: Cell viability (MTT assay) in HaCaT
Assay type: cell-based, Human
Conditions: human, HaCaT keratinocytes; HaCaT, 1% FBS, 24 h, 1 μg/ml
assay-endpoint: cytotoxicity at 24 h, 1 μg/ml (%)

substance="H-WVQRVVEKFLK-OH [IS181]" endpoint_unit=% value_observed=4.88

====

Assay: in vitro
Conditions: human, HaCaT keratinocytes
assay-endpoint: cytotoxicity at 72 h, 0.01 µM

compound="CN(Cc1cnc2nc(N)nc(N)c2n1)c1ccc(C(=O)N[C@@H](CCC(=O)O)C(=O)O)cc1 [MTX, methotrexate]" value_observed=12.3%

====

Assay: in vitro
Conditions: human, HaCaT keratinocytes
assay-endpoint: cytotoxicity at 72 h, 0.5 µM

compound="CN(Cc1cnc2nc(N)nc(N)c2n1)c1ccc(C(=O)N[C@@H](CCC(=O)O)C(=O)O)cc1 [MTX, methotrexate]" value_observed=23.9%

====

Assay: Cell viability (MTT assay) in SK-MEL-28
Format: cell-based, Human
Settings: human, SK-MEL-28 melanoma cells; SK-MEL-28, 72 h, 100 μg/ml
assay-endpoint: cytotoxicity at 72 h, 100 μg/ml (%)

substance="H-WVQRVVEKFLK-OH [IS181]" value_observed=5.78

====

Experiment: Cell viability (MTT assay) in SK-MEL-28
Format: cell-based, Human
Conditions: human, SK-MEL-28 melanoma cells; SK-MEL-28, 24 h, 1 μg/ml
assay-endpoint: cytotoxicity at 24 h, 1 μg/ml (%)

substance="H-WVQRVVEKFLK-OH [IS181]" assay_endpoint="cytotoxicity at 24 h, 1 μg/ml" value_observed=-12.5

====

Test system: Human Keratinocytes (HaCaT)
Assay: Cell viability (MTT assay) in HaCaT
Type: cell-based
Details: 24 h
assay-endpoint: IC50 (µM)

substance="H-WVQRVVEKFLK-OH [IS181]" assay_endpoint=IC50 value_observed=470

====

Assay: Cell viability (MTT assay) in HaCaT
Assay type: cell-based, Human
Conditions: human, HaCaT keratinocytes; HaCaT, 1% FBS, 72 h, 100 μg/ml
assay-endpoint: cytotoxicity at 72 h, 100 μg/ml (%)

substance="H-WVQRVVEKFLK-OH [IS181]" value_observed=-42.5
